study_system: TNKS2 (Homo sapiens)
Construct: GST-tagged Tnks-2 (873-1166 aa, prepared in-house); made in house
assay_notes: TNKS2 activity ELISA (autoparsylation assay)
Type: biochemical
conditions_used: GST-tagged Tnks-2 (873-1166 aa); read-out: IC50 [M] TNKS2 ELISA
Experimental: Description of the TNKS1 and TNKS2 ELISA Assay Biochemical Activity Testing of TNKS 1 and 2: Activity ELISA (Autoparsylation Assay) For analysis of autoparsylation activity of TNKS 1 and 2 an activity ELISA iss performed: In the first step GST tagged TNKS is captured on a Glutathione coated plate. Then the activity assay with biotinylated NAD is performed in the absence/presence of the compounds. […] The amount of biotinylated resp. autoparsylated TNKS is detected with a luminescence substrate for HRP. […]
Where a name gives a salt, the structure may show the parent alone.
quantity_name: IC50
Number plus unit, in that order.

{"compound": "COc1ccc(C(=O)C2CCN(C(=O)CCCc3nn4cccc4c(=O)[nH]3)CC2)cc1F", "IC50": "2.1e-10 M"}
{"compound": "Cc1scc2c(=O)[nH]c(CCCC(=O)N3CCC(c4cnc(N)c(C#N)c4)CC3)nc12 [Compound C115, trifluoroacetate]", "IC50": "1.3e-09 M"}
{"compound": "CC(C)n1cc(C(=O)C2CCN(C(=O)CCCc3cn4c(F)ccc4c(=O)[nH]3)CC2)cn1", "IC50": "1.3e-09 M"}

Next compound, IC50 to be filled in.
IC50 measured on COc1ccc(C(=O)C2CCN(C(=O)CCCc3cn4c(Cl)ccc4c(=O)[nH]3)CC2)cc1 = 1.6e-10 M

* * *

assay_notes: Microsomal stability (intrinsic clearance), human liver microsomes
Assay type: in vitro ADME
conditions_used: pH 7.4
quantity_name: microsomal CLint (µL/min/mg)
Numbers only; they are read as µL/min/mg.

{"molecular_string": "COc1ccc(C(=O)C2CCN(C(=O)CCCc3nc4c(c(=O)[nH]3)COCC4)CC2)cc1C", "units_symbol": "µL/min/mg", "quantitative_result": 12}
{"molecular_string": "COc1ccc(C(=O)C2CCN(C(=O)CCCc3nc4c(cnn4C)c(=O)[nH]3)CC2)cc1F", "units_symbol": "µL/min/mg", "quantitative_result": 16}

microsomal CLint measured on Cn1cc(C(=O)C2CCN(C(=O)CCCc3nn4cc(F)cc4c(=O)[nH]3)CC2)cn1 = 11

* * *

study_system: TNKS1 (Homo sapiens)
Construct: GST-tagged Tnks-1 (1023-1327 aa, prepared in-house); made in house
assay_notes: TNKS1 activity ELISA (autoparsylation assay)
Assay type: biochemical
conditions_used: GST-tagged Tnks-1 (1023-1327 aa)
Structures can show the parent of a compound that is named as a salt.
# reported IC50; entries follow

Known IC50 results, listed for orientation:
{"compound": "COc1ccc(C(=O)C2CCN(C(=O)CCCc3cn4c(C)ncc4c(=O)[nH]3)CC2)cc1", "study_system": "TNKS1 (Homo sapiens)", "quantity_name": "IC50", "result": "0.16 nM"}
{"compound": "COc1ccc(C(=O)C2CCN(C(=O)CCCc3nc4c(C)csc4c(=O)[nH]3)CC2)cc1F", "study_system": "TNKS1 (Homo sapiens)", "quantity_name": "IC50", "result": "0.18 nM"}
{"compound": "O=C(c1ccc(Cl)cc1)C1CCN(C(=O)CCCc2nc3c(c(=O)[nH]2)COCC3)CC1 [Compound C247, trifluoroacetate]", "study_system": "TNKS1 (Homo sapiens)", "quantity_name": "IC50", "result": "3.3 nM"}
{"compound": "COc1ccc(C(=O)C2CCN(C(=O)CCCc3nc4c(c(=O)[nH]3)COCC4)CC2)cc1C", "study_system": "TNKS1 (Homo sapiens)", "quantity_name": "IC50", "result": "0.27 nM"}
{"compound": "Cn1ncc2c(=O)[nH]c(CCCC(=O)N3CCC(C(=O)c4ccc(C(C)(C)O)cc4)CC3)nc21", "study_system": "TNKS1 (Homo sapiens)", "quantity_name": "IC50", "result": "11 nM"}
{"compound": "Cc1ccc(C(=O)C2CCN(C(=O)CCCc3nc4c(cnn4C)c(=O)[nH]3)CC2)cc1", "study_system": "TNKS1 (Homo sapiens)", "quantity_name": "IC50", "result": "0.66 nM"}

IC50 measured on COc1ccc(C(=O)C2CCN(C(=O)CCCc3nc4c(C)scc4c(=O)[nH]3)CC2)cn1 = 0.68 nM

* * *

study_system: TNKS2 (Homo sapiens, UniProt Q9H2K2)
Construct: GST-tagged Tnks-2 (873-1166 aa, prepared in-house); made in house
Sequence (Q9H2K2 873-1166): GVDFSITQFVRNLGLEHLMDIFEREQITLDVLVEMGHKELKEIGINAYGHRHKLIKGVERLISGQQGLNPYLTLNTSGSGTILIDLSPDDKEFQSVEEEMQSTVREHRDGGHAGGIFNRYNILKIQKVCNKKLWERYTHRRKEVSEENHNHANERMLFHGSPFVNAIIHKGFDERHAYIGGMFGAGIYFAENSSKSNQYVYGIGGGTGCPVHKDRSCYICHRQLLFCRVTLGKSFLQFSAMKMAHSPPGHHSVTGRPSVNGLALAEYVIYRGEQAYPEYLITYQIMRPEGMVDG
assay_notes: TNKS2 activity ELISA (autoparsylation assay)
Assay type: biochemical
conditions_used: GST-tagged Tnks-2 (873-1166 aa); read-out: IC50 [M] TNKS2 ELISA
quantity_name: log10 IC50 (log10 of the value in M)
Use the decimal logarithm of IC50 (M).

Known log10 IC50 results, listed for orientation:
{"molecular_string": "Cc1scc2c(=O)[nH]c(CCCC(=O)N3CCC(c4cnc(N)c(-c5ncccn5)c4)CC3)nc12", "study_system": "TNKS2 (Homo sapiens, UniProt Q9H2K2)", "quantitative_result": -9.68}
{"molecular_string": "Cc1csc2c(=O)[nH]c(CCCC(=O)N3CCC(C(=O)c4ccc(F)cc4)CC3)nc12", "study_system": "TNKS2 (Homo sapiens, UniProt Q9H2K2)", "quantitative_result": -9.68}
{"molecular_string": "Cn1ccc2c(=O)[nH]c(CCCC(=O)N3CCC(c4cnc(N)c(C#N)c4)CC3)nc21", "study_system": "TNKS2 (Homo sapiens, UniProt Q9H2K2)", "quantitative_result": -9.19}

log10 IC50 measured on Cn1ncc2c(=O)[nH]c(CCCC(=O)N3CCC(Oc4ccc(C#N)cc4)CC3)nc21 = -7.39

log10 IC50 measured on COc1ccc(C(=O)C2CCN(C(=O)CCCc3cn4cc(C)cc4c(=O)[nH]3)CC2)cc1 = -9.80

log10 IC50 measured on COc1ccc(C(=O)C2CCN(C(=O)CCCc3nn4cccc4c(=O)[nH]3)CC2)cc1C = -9.80

log10 IC50 measured on COc1ccc(C(=O)C2CCN(C(=O)CCCc3nn4cccc4c(=O)[nH]3)CC2)cc1 = -9.55

log10 IC50 measured on COc1ccc(C(=O)C2CCN(C(=O)CCCc3nn4cc(C)cc4c(=O)[nH]3)CC2)cc1 = -9.96

* * *

# reported IC50; entries follow
study_system: TNKS1 (Homo sapiens, UniProt O95271)
Construct: GST-tagged Tnks-1 (1023-1327 aa, prepared in-house); made in house
Sequence (O95271 1023-1327): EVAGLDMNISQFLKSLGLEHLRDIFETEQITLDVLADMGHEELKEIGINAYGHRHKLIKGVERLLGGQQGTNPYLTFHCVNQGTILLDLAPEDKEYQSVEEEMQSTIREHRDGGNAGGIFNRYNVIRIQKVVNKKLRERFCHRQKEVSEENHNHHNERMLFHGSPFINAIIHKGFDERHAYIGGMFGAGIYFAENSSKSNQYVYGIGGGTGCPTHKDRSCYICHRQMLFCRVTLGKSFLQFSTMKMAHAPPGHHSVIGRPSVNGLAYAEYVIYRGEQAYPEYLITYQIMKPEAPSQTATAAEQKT
assay_notes: TNKS1 activity ELISA (autoparsylation assay)
Format: biochemical
conditions_used: GST-tagged Tnks-1 (1023-1327 aa)
Numbers only; they are read as nM.

Known IC50 results, listed for orientation:
{"molecule": "COc1ccc(C(=O)C2CCN(C(=O)CCCc3nc4c(cnn4C)c(=O)[nH]3)CC2)cc1F", "units_symbol": "nM", "IC50": 0.12}
{"molecule": "COc1ccc(C(=O)C2CCN(C(=O)CCCc3nc4c(c(=O)[nH]3)COCC4)CC2)cc1F", "units_symbol": "nM", "IC50": 5.6}
{"molecule": "CC(C)n1cc(C(=O)C2CCN(C(=O)CCCc3nn4cc(F)cc4c(=O)[nH]3)CC2)cn1", "units_symbol": "nM", "IC50": 2.1}

IC50 measured on COc1ccc(C(=O)C2CN(C(=O)CCCc3cn4cccc4c(=O)[nH]3)C2)cc1 [Compound D1] = 120

* * *

Tested on: Tankyrases
conditions_used: read-out: EC50 [M] TNKS cellular assay; DLD1 cells, 24 hours, Axin2 increase
quantity_name: EC50 (M)
Numbers only; they are read as M.

{"molecule": "Cc1cc2c(=O)[nH]c(CCCC(=O)N3CCC(Oc4ccc(C#N)cc4)CC3)nn2c1 [Compound C163]", "units_symbol": "M", "EC50": "2e-07"}

EC50 measured on CC(C)n1cc(C(=O)C2CCN(C(=O)CCCc3nc4c(c(=O)[nH]3)COCC4)CC2)cn1 [Compound C229] = 1.6e-06

EC50 measured on CCn1cc(C(=O)C2CCN(C(=O)CCCc3nc4c(C)scc4c(=O)[nH]3)CC2)cn1 [Compound C216] = 5.2e-08

EC50 measured on Nc1ncc(C2CCN(C(=O)CCCc3nc4c(c(=O)[nH]3)COCC4)CC2)cc1-c1ncccn1 [Compound C195] = 3.5e-08

EC50 measured on Cc1ccc2c(=O)[nH]c(CCCC(=O)N3CCC(c4nnc(-c5ccccc5)o4)CC3)nn12 [Compound C151] = 1.9e-08

* * *

study_system: PARP-1 (Homo sapiens, UniProt P09874)
Construct: purchased Enzo Life Sciences GmbH, Lörrach, Germany
Sequence (P09874 whole entry): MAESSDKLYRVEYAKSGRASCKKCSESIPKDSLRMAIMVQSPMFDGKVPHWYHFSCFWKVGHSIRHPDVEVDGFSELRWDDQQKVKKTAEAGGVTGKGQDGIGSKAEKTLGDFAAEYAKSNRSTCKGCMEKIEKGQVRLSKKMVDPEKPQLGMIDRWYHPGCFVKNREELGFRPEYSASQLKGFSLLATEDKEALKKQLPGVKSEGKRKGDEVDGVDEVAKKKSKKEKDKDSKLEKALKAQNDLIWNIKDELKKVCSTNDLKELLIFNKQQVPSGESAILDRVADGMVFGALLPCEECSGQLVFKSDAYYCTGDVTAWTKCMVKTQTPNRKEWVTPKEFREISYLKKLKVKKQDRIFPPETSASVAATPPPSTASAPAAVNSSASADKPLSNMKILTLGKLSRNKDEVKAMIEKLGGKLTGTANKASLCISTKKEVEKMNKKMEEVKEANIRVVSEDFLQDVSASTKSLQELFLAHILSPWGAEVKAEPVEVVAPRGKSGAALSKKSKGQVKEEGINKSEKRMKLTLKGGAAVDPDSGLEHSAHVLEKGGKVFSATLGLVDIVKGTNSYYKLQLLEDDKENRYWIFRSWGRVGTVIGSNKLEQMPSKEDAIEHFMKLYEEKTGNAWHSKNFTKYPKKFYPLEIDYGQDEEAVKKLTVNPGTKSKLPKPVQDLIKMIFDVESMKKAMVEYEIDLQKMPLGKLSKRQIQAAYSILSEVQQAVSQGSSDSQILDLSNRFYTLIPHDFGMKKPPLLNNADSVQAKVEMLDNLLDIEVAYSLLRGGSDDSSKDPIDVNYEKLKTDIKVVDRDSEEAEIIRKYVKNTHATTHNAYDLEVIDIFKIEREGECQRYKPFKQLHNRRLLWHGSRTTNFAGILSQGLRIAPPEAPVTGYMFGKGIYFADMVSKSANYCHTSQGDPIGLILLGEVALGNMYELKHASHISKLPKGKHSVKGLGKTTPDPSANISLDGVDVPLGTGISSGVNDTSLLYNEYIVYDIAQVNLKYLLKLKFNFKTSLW
assay_notes: PARP-1 autoparsylation assay (HTRF)
Type: biochemical
conditions_used: His-tagged Parp-1, autoparsylation HTRF
# reported log10 IC50; entries follow
Use the decimal logarithm of IC50 (µM).

log10 IC50 measured on COc1ccc(C(=O)C2CCN(C(=O)CCCc3nn4cccc4c(=O)[nH]3)CC2)cc1F [Compound C136] = 0.49

log10 IC50 measured on Cn1cc(C(=O)C2CCN(C(=O)CCCc3cn4c(F)ccc4c(=O)[nH]3)CC2)cn1 [Compound C208] = 0.78
